# ASSAY_TARGET: T1, HLA-DP DPB1*0401 (human)
# T1 chain 1: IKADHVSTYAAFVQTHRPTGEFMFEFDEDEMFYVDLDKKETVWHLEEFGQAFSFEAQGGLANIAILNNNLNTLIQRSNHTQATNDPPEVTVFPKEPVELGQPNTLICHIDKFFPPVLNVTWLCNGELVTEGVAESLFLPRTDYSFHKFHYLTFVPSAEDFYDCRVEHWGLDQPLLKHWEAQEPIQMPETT
# T1 chain 2: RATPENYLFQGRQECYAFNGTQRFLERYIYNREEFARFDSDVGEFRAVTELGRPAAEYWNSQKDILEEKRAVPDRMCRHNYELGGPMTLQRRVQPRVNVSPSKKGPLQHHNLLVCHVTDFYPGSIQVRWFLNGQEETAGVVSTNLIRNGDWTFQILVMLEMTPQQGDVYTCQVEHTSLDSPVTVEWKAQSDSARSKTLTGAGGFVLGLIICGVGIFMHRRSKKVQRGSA
# PROCEDURE_SUMMARY: inhibition of radiolabeled peptide binding to purified HLA-DP
Measured IC50 by item
// units = nM; emit number, no label

KALWIIFSQNMNIKL [Cup a 1 peptide 66-80 KALWIIFSQNMNIKL (Peptide ID 3324.0604)] :: 1730
PARLFKAFVLDSDNL [Que a 1 peptide 16-30 PARLFKAFVLDSDNL (Peptide ID 3324.1585)] :: 52
DIYNYMEPYVSKVDP [Dac g 4 peptide 1-15 DIYNYMEPYVSKVDP (Peptide ID 3324.0663)] :: 23400

Lookup: Value lookup for IC50; key = EKALWIIFSQNMNIK [Cup s 1 peptide 86-100 EKALWIIFSQNMNIK (Peptide ID 3324.0615)]
Found: 1540
